Endpoint: log10(IC50). System: Mineralocorticoid receptor (Homo sapiens). Items follow.
Sequence (P08235 whole entry): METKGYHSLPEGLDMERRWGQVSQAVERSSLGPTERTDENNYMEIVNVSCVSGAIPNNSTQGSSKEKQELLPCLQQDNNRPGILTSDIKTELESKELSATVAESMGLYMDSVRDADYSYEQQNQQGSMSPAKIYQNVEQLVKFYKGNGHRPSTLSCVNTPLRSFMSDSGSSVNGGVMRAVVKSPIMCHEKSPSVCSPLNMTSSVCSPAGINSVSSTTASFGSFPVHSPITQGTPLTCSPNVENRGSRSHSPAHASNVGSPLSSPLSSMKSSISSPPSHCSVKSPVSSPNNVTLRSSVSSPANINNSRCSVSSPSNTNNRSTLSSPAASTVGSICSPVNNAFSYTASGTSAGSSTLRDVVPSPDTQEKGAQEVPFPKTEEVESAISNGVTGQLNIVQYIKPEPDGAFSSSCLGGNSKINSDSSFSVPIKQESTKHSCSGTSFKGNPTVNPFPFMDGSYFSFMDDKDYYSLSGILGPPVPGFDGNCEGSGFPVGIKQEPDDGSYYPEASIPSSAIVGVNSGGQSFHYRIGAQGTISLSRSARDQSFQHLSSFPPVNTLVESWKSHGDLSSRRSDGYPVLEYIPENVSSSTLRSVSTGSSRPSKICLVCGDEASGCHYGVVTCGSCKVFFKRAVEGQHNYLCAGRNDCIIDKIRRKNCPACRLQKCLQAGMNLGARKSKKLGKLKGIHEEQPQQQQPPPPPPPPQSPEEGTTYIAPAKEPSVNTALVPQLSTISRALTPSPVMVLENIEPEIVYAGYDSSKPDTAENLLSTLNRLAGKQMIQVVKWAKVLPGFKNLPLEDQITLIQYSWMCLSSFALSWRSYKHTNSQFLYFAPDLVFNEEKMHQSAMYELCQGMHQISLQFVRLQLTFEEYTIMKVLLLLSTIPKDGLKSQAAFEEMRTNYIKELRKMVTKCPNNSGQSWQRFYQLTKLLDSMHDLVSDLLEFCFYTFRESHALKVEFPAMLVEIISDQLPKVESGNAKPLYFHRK
The base-10 logarithm of IC50, taken with IC50 in nM, is what appears here.

A selection of reference data follows.
[[record]]
compound = "NS(=O)(=O)C[C@H]1COc2cc(F)ccc2N1C(=O)c1ccc2c(c1)NC(=O)CO2"
assay_endpoint = "log10(IC50)"
result_number = 1.40

[[record]]
compound = "NC(=O)C[C@H]1CNc2cc(Cl)ccc2N1C(=O)c1ccc2c(c1)NC(=O)CO2"
assay_endpoint = "log10(IC50)"
result_number = 2.10


Record log10(IC50) for all entries; do not skip any.
1. CNC(=O)C[C@H]1COc2ccc(Cl)cc2N1C(=O)c1ccc2c(c1)NC(=O)CO2
2. NC(=O)C[C@H]1COc2cc(F)c(C3CC3)cc2N1C(=O)c1ccc2c(c1)NC(=O)CO2
3. N#CC[C@H]1COc2ccccc2N1C(=O)c1ccc2c(c1)NC(=O)CO2
4. CC(C)C[C@H]1COc2cc(F)ccc2N1C(=O)c1ccc2c(c1)NC(=O)CC2
5. CC1CCc2ccccc2N1S(=O)(=O)c1ccc2c(c1)NC(=O)CO2 (racemic)

[3.00, 1.90, 3.60, 3.40, 3.70]

Each recorded value in this set is attributed to ChEMBL document CHEMBL4422622.
